So I've got a bunch of molecules here, and I need their TGI values.
Test system: NCI-H460 lung
assay_procedure: NCI tumour cell line growth inhibition, 48 h

Need TGI of CC[C@]12C=CCN3CC[C@@]4(c5ccc(OC)cc5N(C)[C@H]4[C@@](O)(C(=O)OC)[C@@H]1OC(C)=O)[C@@H]32 , thanks.
> 200 µM

Moving on to the next molecule: COc1ccc(OC(=O)O[C@H]2[C@H](O[C@H]3[C@@H](O)COC(O[C@H]4C[C@H]5[C@@H]6CC=C7C[C@@H](O)CC[C@]7(C)[C@H]6CC[C@]5(C)[C@H]4[C@H](C)C(=O)CCC(C)C)[C@@H]3OC(C)=O)OC[C@@H](O)[C@@H]2O)cc1 (stereo partly specified)
3.33 µM

Moving on to the next molecule: COc1ccc(-n2c(SCc3cc(OC)c(OC)c(OC)c3)nc3ccc(C)cc3c2=O)cc1
> 100 µM

Moving on to the next molecule: CC(C(=O)N1c2ccccc2Sc2ccccc21)N1c2ccccc2Sc2ccccc21 (stereo unspecified)
> 100 µM

Moving on to the next molecule: CC(=O)O[C@@H]1C=C(C)[C@H](CBr)O[C@@]2(C)CC[C@H](Br)C(C)(C)[C@H]12
> 100 µM

Moving on to the next molecule: Cc1c2c(nn1-c1ccc(S(=O)(=O)/N=C3\SCC(=O)N3C(=O)c3ccccc3)cc1)-c1ccccc1CC2
> 100 µM

Moving on to the next molecule: CCOC(=O)c1c(SC(=O)/C=C/c2ccccc2)n(-c2ccccc2)c(=S)n(-c2ccccc2)c1=O
> 100 µM

Moving on to the next molecule: N#CCCN(c1ccc(/C=C2\N=C(c3ccc(Cl)cc3)OC2=O)cc1)S(=O)(=O)c1ccccc1
> 100 µM

Moving on to the next molecule: COc1ccc(-n2cc(-c3cc(OC)c(OC)c(OC)c3)[nH]c2=S)cc1OC
> 100 µM

Moving on to the next molecule: O=C(c1ccccc1)c1c2ccccn2c2cccc[n+]12
> 100 µM

Moving on to the next molecule: COC(=O)[C@]12CCC(C)(C)C[C@H]1C1=CC[C@@H]3[C@@]4(C)C/C(=C/c5cccnc5)C(=O)C(C)(C)[C@@H]4CC[C@@]3(C)[C@]1(C)CC2
26.6 µM

Moving on to the next molecule: C/C(=N\NC(=S)N1CC2CCC(CC2)C1)c1ccncn1
1.65 µM

Moving on to the next molecule: O=C(/C=C/c1ccccc1Cl)c1ccccc1Cl
36 µM

Moving on to the next molecule: COc1ccc(C2CC(=O)c3c(O)c(OC)c(OC)c(OC)c3O2)c(O)c1 (stereo unspecified)
10.9 µM

Moving on to the next molecule: CC(C)(C)OC(=O)N(CCCN(CCn1c2c(c3ccccc3c1=O)C(=O)c1ccccc1-2)C(=O)OC(C)(C)C)CCn1c2c(c3ccccc3c1=O)C(=O)c1ccccc1-2
> 50 µM

Moving on to the next molecule: CC(=O)OC[C@H]1[C@@H]2C(CC[C@]13CO3)OC(=O)CC(C)[C@]2(C)CCc1ccoc1 (stereo partly specified)
> 100 µM
